- Assay Protocol: Half-life in phosphate buffer (0.05 M, mu = 0.15) at 30 degree Celsius with pH 7.79
- Assay type: ADME
Property Measured: half-life
Output should be the measured figure followed by the unit it is expressed in.

Please review the following examples before continuing.
[[record]]
compound = "Cc1onc(-c2c(Cl)cccc2Cl)c1C(=O)NC1C(=O)N2C1SC(C)(C)[C@@H]2C(=O)OCOC(=O)C1=CN(C)C=CC1 (some centres undefined)"
property_measured = "half-life"
assay_result = "15.5 h"

[[record]]
compound = "COc1cccc(OC)c1C(=O)NC1C(=O)N2C1SC(C)(C)[C@@H]2C(=O)OCOC(=O)C1=CN(C)C=CC1 (some centres undefined)"
property_measured = "half-life"
assay_result = "1.71 h"

[[record]]
compound = "Cc1onc(-c2ccccc2)c1C(=O)NC1C(=O)N2C1SC(C)(C)[C@@H]2C(=O)OCOC(=O)C1=CN(C)C=CC1 (some centres undefined)"
property_measured = "half-life"
assay_result = "2.87 h"


Now look at this one.
QUERY: Return reported half-life; argument: Cc1onc(-c2ccccc2Cl)c1C(=O)NC1C(=O)N2C1SC(C)(C)[C@@H]2C(=O)OCOC(=O)C1=CN(C)C=CC1 (some centres undefined)
RESULT: 5.08 h

* * *

- Assay Protocol: Lipophilicity was determined by reversed-phase HPLC
- Stated Conditions: extrapolated to 100% water
Property Measured: Log k
Give bare numbers.

[[record]]
compound = "Cc1onc(-c2c(Cl)cccc2Cl)c1C(=O)NC1C(=O)N2C1SC(C)(C)[C@@H]2C(=O)[O-].[Na+] (some centres undefined)"
property_measured = "Log k"
assay_result = 2.435

[[record]]
compound = "Cc1onc(-c2c(Cl)cccc2Cl)c1C(=O)NC1C(=O)N2C1SC(C)(C)[C@@H]2C(=O)OCOC(=O)C1=CN(C)C=CC1 (some centres undefined)"
property_measured = "Log k"
assay_result = 3.41


Take each entry in turn and give its Log k.
1. COc1cccc(OC)c1C(=O)NC1C(=O)N2C1SC(C)(C)[C@@H]2C(=O)OCOC(=O)C1=CN(C)C=CC1 (some centres undefined)
2. COc1cccc(OC)c1C(=O)N[C@@H]1C(=O)N2[C@@H]1SC(C)(C)[C@@H]2C(=O)[O-].[Na+]

RESULT:
1. 2.28
2. 0.658
